tested on: Bacillus subtilis; assay: Antimicrobial activity against Bacillus subtilis ATCC 6633 at 1 ug/ml after 24 hrs by agar diffusion method; type: functional; conditions: ATCC 6633, 24 h, read-out: DIZ
RECORDED ENDPOINT: zone of inhibition at 1 µg/mL (mm)
All answers are understood in mm, so give the number only.

CCCCCCCC[N+]12CC[N+](CCCCC[N+]34CC[N+](CCCCCCCC)(CC3)CC4)(CC1)CC2.[Br-].[Br-].[Br-].[Br-] :: 10
CC[N+]12CC[N+](CCCCC[N+]34CC[N+](CC)(CC3)CC4)(CC1)CC2 :: 0
CCC[N+]12CC[N+](CCCCC[N+]34CC[N+](CCC)(CC3)CC4)(CC1)CC2 :: 0
CCCCCCCCC[N+]12CC[N+](CCCCC[N+]34CC[N+](CCCCCCCCC)(CC3)CC4)(CC1)CC2.[Br-].[Br-].[Br-].[Br-] :: 12

Shift focus to the following entry.
IN: Entry CCCCCCCCCC[N+]12CC[N+](CCCCC[N+]34CC[N+](CCCCCCCCCC)(CC3)CC4)(CC1)CC2.[Br-].[Br-].[Br-].[Br-] needs its zone of inhibition at 1 µg/mL filled in; supply it.
OUT: 10
